Cited source for all entries: PubChem BioAssay (NCATS)

biological target: Glucocorticoid receptor (Homo sapiens) (UniProt P04150); assay: GR-EFC Redistribution (AID 451); settings: CHO-K1 GR-EFC translocation, beta-gal luminescence, 2 h; also: potency is read from the fitted curve at half-maximal effect
Sequence (P04150 whole entry, looked up): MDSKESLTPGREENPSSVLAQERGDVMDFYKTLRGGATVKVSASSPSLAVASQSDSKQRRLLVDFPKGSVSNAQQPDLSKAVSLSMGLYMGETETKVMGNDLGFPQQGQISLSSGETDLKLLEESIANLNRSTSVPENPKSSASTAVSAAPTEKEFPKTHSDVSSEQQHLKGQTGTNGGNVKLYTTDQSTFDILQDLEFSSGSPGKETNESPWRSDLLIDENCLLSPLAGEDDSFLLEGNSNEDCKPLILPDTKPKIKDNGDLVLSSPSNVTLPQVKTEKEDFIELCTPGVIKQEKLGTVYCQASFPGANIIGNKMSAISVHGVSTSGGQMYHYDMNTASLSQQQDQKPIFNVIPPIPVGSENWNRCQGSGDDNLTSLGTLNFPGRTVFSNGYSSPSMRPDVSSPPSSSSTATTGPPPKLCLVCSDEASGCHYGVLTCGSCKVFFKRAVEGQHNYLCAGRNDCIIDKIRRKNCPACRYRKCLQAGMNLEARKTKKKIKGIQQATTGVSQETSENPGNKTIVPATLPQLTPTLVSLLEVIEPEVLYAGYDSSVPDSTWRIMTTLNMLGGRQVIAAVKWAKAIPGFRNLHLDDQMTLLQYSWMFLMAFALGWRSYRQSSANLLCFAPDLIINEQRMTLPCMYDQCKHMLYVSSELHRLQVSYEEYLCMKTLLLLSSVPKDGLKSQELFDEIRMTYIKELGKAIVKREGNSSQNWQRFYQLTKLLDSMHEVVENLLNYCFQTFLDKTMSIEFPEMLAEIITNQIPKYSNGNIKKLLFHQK
Active and inactive are the calls of the source. Calls follow the shape of the full dose curve.
measurement name: Potency

Cc1noc(C)c1C(=O)N1CCC2(CCCN(CC(C)C)C2)CC1; > 46 µM (inactive)
COc1ccc(C(=O)OC2C[C@H]3CC[C@@H](C2)N3C)cc1OC (some centres undefined); > 20.6 µM (inactive)
O=C(c1cnccn1)N1CCC2(CC1)CN(Cc1ccncc1)C2; > 46 µM (inactive)
CN1CCC2(CC1)CCN(C(=O)Oc1ccccc1)CC2; > 46 µM (inactive)
O=C(Nc1ccccc1)N1CC2(CCN(C(=O)Oc3ccccc3)CC2)C1; > 46 µM (inactive)
C[N+]1(C)CCO[C@](O)(c2ccc(-c3ccc([C@]4(O)C[N+](C)(C)CCO4)cc3)cc2)C1; > 20.6 µM (inactive)
C/C=C1\C[N@@+]2(C)CC[C@@]34C(=C(C=O)[C@H]1C[C@H]32)Nc1ccccc14; > 20.6 µM (inactive)
CC(C)C[C@H]1C(=O)N2CCC[C@@H]2[C@@]2(O)O[C@](NC(=O)[C@@H]3C=C4c5cccc6[nH]cc(c56)C[C@@H]4N(C)C3)(C(C)C)C(=O)N12; > 20.6 µM (inactive)
COc1cc2c3cc1Oc1cc(ccc1O)C[C@@H]1c4c(cc(OC)c(O)c4Oc4cccc(c4)C[C@H]3N(C)CC2)CC[N+]1(C)C; > 20.6 µM (inactive)
c1cnc(N2CC3(CCNCC3)C2)nc1; > 46 µM (inactive)
CN1CCN(c2ncc3ncc(=O)n(C)c3n2)CC1; > 46 µM (inactive)
CC(C)CN1CC[C@@]2(CCCN(C(=O)c3ccncc3)C2)C1; > 46 µM (inactive)
Clc1ccc([C@@H](OCCN2CCCCC2)c2ccccc2)cc1; > 20.6 µM (inactive)
CN1[C@H]2CC(=O)C[C@@H]1[C@@H](O)C2; > 20.6 µM (inactive)

====

test: Cell Viability - LYMP2-007 (AID 979); details: LYMP2-007 lymphoblastoid cell viability; series mostly up to 92.2 µM;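 also: cells exposed to compound for 24 h before reading; nearly all actives have a fitted effect of over 60% in size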
Inconclusive results are not listed. Calls of active or inactive are those of the source. The call rests on the fitted dose curve; in most records, active means well fitted cell-killing curve with a large enough effect; inconclusive means small, poorly fitted or top-dose-only effect; inactive means flat fitted curve, though single readings scatter.
Labels: 1 (active), -1 (inactive)

COc1ccc(C=O)cc1OC; -1
O=C(O)CC(O)(CC(=O)O)C(=O)O; 1
C=C(Cl)Cl; -1
OCC(Br)CBr (stereo not given); -1
C=CCOC(C)=O; -1
CCCSC(=O)Cl; -1
Nc1c(Cl)c(Cl)nc(C(=O)O)c1Cl; -1
C[C@]12CC[C@H]3[C@@H](CCC4=CC(=O)CC[C@@]43C)[C@@H]1CC[C@@H]2O; -1
CNC(=O)O/N=C/C(C)(C)SC; -1
CC(C)(OO)c1ccccc1; 1
O=C1C(Cl)=C(Cl)C(=O)C(Cl)=C1Cl; 1
N#CCCCl; -1
CCOP(=S)(OCC)SCSC(C)(C)C; -1
NC(=S)Nc1ccccc1; -1
Nc1ccccc1Cl; -1
Clc1nc(Cl)nc(Cl)n1; -1
CN=C=S; -1
CC(Cl)Cl; -1
C[N+](C)(C)Cc1ccccc1; -1
COC1=CC(=O)O[C@@H](/C=C/c2ccc3c(c2)OCO3)C1; -1
CCC[CH2][Sn]([Cl])([Cl])[Cl]; -1
Cc1ccc2ccccc2c1; -1
c1nc[nH]n1; -1
C=CCOC(=O)c1ccccc1N; -1
Brc1ccc(Oc2cc(Br)c(Br)cc2Br)c(Br)c1; -1
COP(=S)(OC)Oc1ccc([N+](=O)[O-])cc1; -1
CCCCCCCC(=O)Cl; -1
Cc1cccc([N+](=O)[O-])c1; -1
CC(O)CCl (stereo not given); -1
CC(C)(c1ccccc1)c1ccc(O)cc1; -1
ClC1=C(Cl)C2(Cl)C3C4CC(C5OC45)C3C1(Cl)C2(Cl)Cl (stereo not given); 1
[O-][Br+2]([O-])O; -1
C=CC(N)=O; -1
Cc1ccc([N+](=O)[O-])cc1C; -1
Nc1ccc(Br)cc1; -1
C[C@H]1CCCC(=O)CCC/C=C/c2cc(O)cc(O)c2C(=O)O1; -1
O=S1OCC2C(CO1)C1(Cl)C(Cl)=C(Cl)C2(Cl)C1(Cl)Cl (stereo not given); -1
Oc1ccc(Cl)cc1Cl; -1
C=C(C)C(=O)OCC1CO1 (stereo not given); -1
c1ccc(N=Nc2ccccc2)cc1; 1
Clc1cccc(C(Cl)(Cl)Cl)n1; -1
Cc1ccc(O)c(C)c1; -1
O=NN(c1ccccc1)c1ccccc1; -1
Cc1cccc(C#N)c1; -1
O=C(Cl)/C=C/C(=O)Cl; -1
Cc1ccccc1N; -1
C1CCC2CCCCC2C1 (stereo not given); -1
C=CCc1ccc(OC)cc1; -1
CCOP(=S)(OCC)Oc1ccc([N+](=O)[O-])cc1; -1
C=CC(=C)C; -1
CCNc1nc(Cl)nc(NC(C)C)n1; -1
O=C(O)COc1ccc(Cl)cc1Cl; -1
CCN(CC)c1ccccc1; -1
COc1ccc(N)cc1; -1
Clc1cc(Cl)c(-c2cc(Cl)c(Cl)cc2Cl)cc1Cl; -1
